B1: CPEB3 Ribozyme (parent)
chain: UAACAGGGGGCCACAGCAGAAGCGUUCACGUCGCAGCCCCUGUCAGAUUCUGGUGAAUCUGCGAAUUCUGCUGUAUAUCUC

- Variants of: B1
- Assay: self-cleavage, relative activity (ratio to wild type); higher = more cleavage; in vitro, sequencing
Record form. Attribute: self-cleavage. Fill in for each entry.

Looking up U69A U76C , I see its self-cleavage listed as 0.7

Looking up G42C U74C , I see its self-cleavage listed as 0.3

Looking up G9A G46A , I see its self-cleavage listed as 0.13

Looking up C38A U41C , I see its self-cleavage listed as 0.43

Looking up G16U A47G , I see its self-cleavage listed as 0.32

Looking up G33A G70C , I see its self-cleavage listed as 0.26

Looking up A13U C40U , I see its self-cleavage listed as 1.25

Looking up C12U A15U , I see its self-cleavage listed as 1.23

Looking up G52C A77C , I see its self-cleavage listed as 1.11

Looking up C29G U49A , I see its self-cleavage listed as 0.38

Looking up U67G U80A , I see its self-cleavage listed as 0.4

Looking up A57G G70C , I see its self-cleavage listed as 0.22

Looking up A5U C14U , I see its self-cleavage listed as 0.88

Looking up G6C A21G , I see its self-cleavage listed as 0.56

Looking up A2G A18G , I see its self-cleavage listed as 0.48

Looking up C14A A15G , I see its self-cleavage listed as 1.1

Looking up U1C U69C , I see its self-cleavage listed as 0.46

Looking up U41C G55A , I see its self-cleavage listed as 0.93

Looking up U26G U51A , I see its self-cleavage listed as 0.42

Looking up A13U A47U , I see its self-cleavage listed as 0.92

Looking up A13U A28G , I see its self-cleavage listed as 0.72

Looking up A35U G63A , I see its self-cleavage listed as 0.27

Looking up C27A C59A , I see its self-cleavage listed as 0.11

Looking up C23U A45G , I see its self-cleavage listed as 0.25

Looking up G70A U74C , I see its self-cleavage listed as 0.69

Looking up G8U A75U , I see its self-cleavage listed as 0.35

Looking up U43A A65U , I see its self-cleavage listed as 0.57
